Tested on: add-G6 riboswitch
procedure-details: cells
Type: cell-based
run-parameters: add-G6 riboswitch; Prestwick library compounds at 100 μM; HEK 293
A collection of molecules and their measured Fold Induction of luciferase activity
quantity-measured: Fold Induction of luciferase activity (fold)

molecule	assay-value
CC[C@@]1(O)C(=O)OCc2c1cc1n(c2=O)Cc2cc3ccccc3nc2-1 [Camptothecine (S, +)]	5.7
CN1CCc2cccc3c2[C@H]1Cc1ccc(O)c(O)c1-3.CN1CCc2cccc3c2[C@H]1Cc1ccc(O)c(O)c1-3.Cl.Cl.O	3.4
C[C@@H]1[C@H](O)[C@@H](C)/C=C/C=C/C=C/C=C/C=C/C=C/C=C/[C@H](O[C@@H]2O[C@H](C)[C@@H](O)[C@H](N)[C@@H]2O)C[C@@H]2O[C@](O)(C[C@@H](O)C[C@@H](O)[C@H](O)CC[C@@H](O)C[C@@H](O)CC(=O)O[C@H]1C)C[C@H](O)[C@H]2C(=O)O	10.7
CC(=O)c1ccc2c(c1)N(CCCN(C)C)c1ccccc1S2.O=C(O)/C=C\C(=O)O [Acetopromazine maleate salt]	5.0
